- Tested on: MDA-MB-468 spheroids with HUVEC/MSC, viability
- procedure.details: Anticancer human tumor MDA-MB-468 cell line growth inhibition [PI3K]; active = viability on the fitted dose curve at most 10% of control; inactive = the rest;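 note: spheroids exposed to agents for seven days before readout; 100% = DMSO vehicle control viability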
- condition.parameters: second compound 0.00316 µM; first compound 0.316 µM
One label from this list, please: True = active, False = inactive

The examples below pair each entry with its known result.
INSERT INTO measurements (compound, target_desc, class_label) VALUES
  ('CCCS(=O)(=O)Nc1ccc(F)c(C(=O)c2c[nH]c3ncc(-c4ccc(Cl)cc4)cc23)c1F + COc1c(OCCCN2CCOCC2)ccc2c3n(c(=NC(=O)c4cnc(N)nc4)nc12)CCN3', 'MDA-MB-468 spheroids with HUVEC/MSC, viability', 'False'),
  ('CCN1CCN(Cc2ccc(Nc3ncc(F)c(-c4cc(F)c5nc(C)n(C(C)C)c5c4)n3)nc2)CC1 + COc1c(OCCCN2CCOCC2)ccc2c3n(c(=NC(=O)c4cnc(N)nc4)nc12)CCN3', 'MDA-MB-468 spheroids with HUVEC/MSC, viability', 'False'),
  ('Cn1ncc(Cl)c1-c1cc(C(=O)NC(CN)Cc2cccc(F)c2)sc1Cl (stereo unspecified) + CC(Nc1ccc2c(c1)OCCn1cc(N3C(=O)OCC3C(F)F)nc1-2)C(N)=O', 'MDA-MB-468 spheroids with HUVEC/MSC, viability', 'False'),
  ('Cn1nccc1Nc1nccc(-c2ccn(C(CO)c3ccc(Cl)c(F)c3)c(=O)c2)n1 (stereo unspecified) + CC(Nc1ccc2c(c1)OCCn1cc(N3C(=O)OCC3C(F)F)nc1-2)C(N)=O', 'MDA-MB-468 spheroids with HUVEC/MSC, viability', 'False'),
  ('CC1(C)CCC(Nc2ncc(C(F)(F)F)c(-c3c[nH]c4c(P(C)(C)=O)c(C#N)ccc34)n2)CN1 (stereo unspecified) + COc1c(OCCCN2CCOCC2)ccc2c3n(c(=NC(=O)c4cnc(N)nc4)nc12)CCN3', 'MDA-MB-468 spheroids with HUVEC/MSC, viability', 'True');

[in] Answer briefly: the call reported for C#Cc1c(F)ccc2cc(O)cc(-c3ncc4c(N5CC6CCC(C5)N6)nc(OCC56CCCN5CC(F)C6)nc4c3F)c12 (stereo unspecified) + CC(Nc1ccc2c(c1)OCCn1cc(N3C(=O)OCC3C(F)F)nc1-2)C(N)=O in this assay.
[out] False

[in] Can you check C[C@@H](NC(=O)c1ncnc(N)c1Cl)c1ncc(C(=O)Nc2cc(C(F)(F)F)c(Cl)cn2)s1 + COc1c(OCCCN2CCOCC2)ccc2c3n(c(=NC(=O)c4cnc(N)nc4)nc12)CCN3 next?
[out] False

[in] Note, next up: C=CC(=O)N1CCN(c2nc(=O)n(-c3c(C)ccnc3C(C)C)c3nc(-c4c(O)cccc4F)c(F)cc23)C(C)C1 (stereo unspecified) + CC(Nc1ccc2c(c1)OCCn1cc(N3C(=O)OCC3C(F)F)nc1-2)C(N)=O
[out] False

[in] And the next one, CC(C)NCC(C(=O)N1CCN(c2ncnc3c2C(C)CC3O)CC1)c1ccc(Cl)cc1 (stereo unspecified) + COc1c(OCCCN2CCOCC2)ccc2c3n(c(=NC(=O)c4cnc(N)nc4)nc12)CCN3 ?
[out] False

[in] Would you mind doing C#Cc1c(F)ccc2cc(O)cc(-c3ncc4c(N5CC6CCC(C5)N6)nc(OCC56CCCN5CC(F)C6)nc4c3F)c12 (stereo unspecified) + COc1c(OCCCN2CCOCC2)ccc2c3n(c(=NC(=O)c4cnc(N)nc4)nc12)CCN3 as well?
[out] False

[in] Item: CC(C)NCC(C(=O)N1CCN(c2ncnc3c2C(C)CC3O)CC1)c1ccc(Cl)cc1 (stereo unspecified) + CC(Nc1ccc2c(c1)OCCn1cc(N3C(=O)OCC3C(F)F)nc1-2)C(N)=O
[out] False

---

- System: MDA-MB-468 spheroids with HUVEC/MSC, viability
- procedure.details: Anticancer human tumor MDA-MB-468 cell line growth inhibition [PI3K]; active = viability on the fitted dose curve at most 10% of control; inactive = the rest;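 note: spheroids exposed to agents for seven days before readout; 100% = DMSO vehicle control viability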
- condition.parameters: second compound 0.316 µM; first compound 10 µM
Log the outcome using a class from true (1) (active), false (0) (inactive)

The examples below pair each entry with its known result.
INSERT INTO assay_data (compound, class_label) VALUES
  ('CCCS(=O)(=O)Nc1ccc(F)c(C(=O)c2c[nH]c3ncc(-c4ccc(Cl)cc4)cc23)c1F + CC(Nc1ccc2c(c1)OCCn1cc(N3C(=O)OCC3C(F)F)nc1-2)C(N)=O', 'false (0)'),
  ('CCCS(=O)(=O)Nc1ccc(F)c(C(=O)c2c[nH]c3ncc(-c4ccc(Cl)cc4)cc23)c1F + Cc1nc(NC(=O)N2CCCC2C(N)=O)sc1-c1ccnc(C(C)(C)C(F)(F)F)c1', 'true (1)'),
  ('CC(C)NCC(C(=O)N1CCN(c2ncnc3c2C(C)CC3O)CC1)c1ccc(Cl)cc1 (stereo not given) + CC(Nc1ncnc2nc[nH]c12)c1cc2cccc(Cl)c2c(=O)n1-c1ccccc1', 'false (0)'),
  ('C[C@@H](NC(=O)c1ncnc(N)c1Cl)c1ncc(C(=O)Nc2cc(C(F)(F)F)c(Cl)cn2)s1 + COc1c(OCCCN2CCOCC2)ccc2c3n(c(=NC(=O)c4cnc(N)nc4)nc12)CCN3', 'false (0)');

[in] Per the assay record, what outcome was assigned to C[C@@H](NC(=O)c1ncnc(N)c1Cl)c1ncc(C(=O)Nc2cc(C(F)(F)F)c(Cl)cn2)s1 + CC(Nc1ncnc2nc[nH]c12)c1cc2cccc(Cl)c2c(=O)n1-c1ccccc1 ?
[out] false (0)

---

- Tested on: MDA-MB-468 spheroids with HUVEC/MSC, viability
- procedure.details: Anticancer human tumor MDA-MB-468 cell line growth inhibition [PI3K];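 note: spheroids exposed to agents for seven days before readout; 100% = DMSO vehicle control viability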
- condition.parameters: second compound 0.1 µM; first compound 3.16 µM; hits give low values
measurement.name: viability, T/C (%)
Provide only the numeric value, understood in %.

Solved entries:
INSERT INTO assay_data (compound, target_desc, val) VALUES
  ('CNC(=O)c1ccc(N2C(=S)N(c3ccc(C#N)c(C(F)(F)F)c3)C(=O)C2(C)C)cc1F + CC(Nc1ncnc2nc[nH]c12)c1cc2cccc(Cl)c2c(=O)n1-c1ccccc1', 'MDA-MB-468 spheroids with HUVEC/MSC, viability', 81.1),
  ('Cn1ncc(Cl)c1-c1cc(C(=O)NC(CN)Cc2cccc(F)c2)sc1Cl (stereo unspecified) + Cc1nc(NC(=O)N2CCCC2C(N)=O)sc1-c1ccnc(C(C)(C)C(F)(F)F)c1', 'MDA-MB-468 spheroids with HUVEC/MSC, viability', 27.5),
  ('C#Cc1c(F)ccc2cc(O)cc(-c3ncc4c(N5CC6CCC(C5)N6)nc(OCC56CCCN5CC(F)C6)nc4c3F)c12 (stereo unspecified) + COc1c(OCCCN2CCOCC2)ccc2c3n(c(=NC(=O)c4cnc(N)nc4)nc12)CCN3', 'MDA-MB-468 spheroids with HUVEC/MSC, viability', 52.8),
  ('CC(Cn1ccc(-c2ccc(C#N)c(Cl)c2)n1)NC(=O)c1cc(C(C)O)[nH]n1 (stereo unspecified) + CC(Nc1ccc2c(c1)OCCn1cc(N3C(=O)OCC3C(F)F)nc1-2)C(N)=O', 'MDA-MB-468 spheroids with HUVEC/MSC, viability', 94.8),
  ('CNC(=O)c1ccc(N2C(=S)N(c3ccc(C#N)c(C(F)(F)F)c3)C(=O)C2(C)C)cc1F + CC(Nc1ccc2c(c1)OCCn1cc(N3C(=O)OCC3C(F)F)nc1-2)C(N)=O', 'MDA-MB-468 spheroids with HUVEC/MSC, viability', 82.1);

[in] Using the record for CCCS(=O)(=O)Nc1ccc(F)c(C(=O)c2c[nH]c3ncc(-c4ccc(Cl)cc4)cc23)c1F + Cc1nc(NC(=O)N2CCCC2C(N)=O)sc1-c1ccnc(C(C)(C)C(F)(F)F)c1 , report its viability, T/C.
[out] 59.5

[in] And for C=CC(=O)N1CCN(c2nc(=O)n(-c3c(C)ccnc3C(C)C)c3nc(-c4c(O)cccc4F)c(F)cc23)C(C)C1 (stereo unspecified) + Cc1nc(NC(=O)N2CCCC2C(N)=O)sc1-c1ccnc(C(C)(C)C(F)(F)F)c1 ?
[out] 95.9

[in] And CCCS(=O)(=O)Nc1ccc(F)c(C(=O)c2c[nH]c3ncc(-c4ccc(Cl)cc4)cc23)c1F + CC(Nc1ccc2c(c1)OCCn1cc(N3C(=O)OCC3C(F)F)nc1-2)C(N)=O ?
[out] 66.2

[in] Subsequent entry: Cn1nccc1Nc1nccc(-c2ccn(C(CO)c3ccc(Cl)c(F)c3)c(=O)c2)n1 (stereo unspecified) + Cc1nc(NC(=O)N2CCCC2C(N)=O)sc1-c1ccnc(C(C)(C)C(F)(F)F)c1
[out] 113

[in] Check C#Cc1c(F)ccc2cc(O)cc(-c3ncc4c(N5CC6CCC(C5)N6)nc(OCC56CCCN5CC(F)C6)nc4c3F)c12 (stereo unspecified) + Cc1nc(NC(=O)N2CCCC2C(N)=O)sc1-c1ccnc(C(C)(C)C(F)(F)F)c1 too.
[out] 79.9

[in] Again, but for CC(Cn1ccc(-c2ccc(C#N)c(Cl)c2)n1)NC(=O)c1cc(C(C)O)[nH]n1 (stereo unspecified) + COc1c(OCCCN2CCOCC2)ccc2c3n(c(=NC(=O)c4cnc(N)nc4)nc12)CCN3
[out] 56

[in] Same lookup for CC1(C)CCC(CN2CCN(c3ccc(C(=O)NS(=O)(=O)c4ccc(NCC5CCOCC5)c([N+](=O)[O-])c4)c(Oc4cnc5[nH]ccc5c4)c3)CC2)=C(c2ccc(Cl)cc2)C1 + CC(Nc1ncnc2nc[nH]c12)c1cc2cccc(Cl)c2c(=O)n1-c1ccccc1 , please.
[out] 65.1

[in] Quick one: Cn1nccc1Nc1nccc(-c2ccn(C(CO)c3ccc(Cl)c(F)c3)c(=O)c2)n1 (stereo unspecified) + CC(Nc1ccc2c(c1)OCCn1cc(N3C(=O)OCC3C(F)F)nc1-2)C(N)=O
[out] 87.5

[in] Query CC1(C)CCC(CN2CCN(c3ccc(C(=O)NS(=O)(=O)c4ccc(NCC5CCOCC5)c([N+](=O)[O-])c4)c(Oc4cnc5[nH]ccc5c4)c3)CC2)=C(c2ccc(Cl)cc2)C1 + CC(Nc1ccc2c(c1)OCCn1cc(N3C(=O)OCC3C(F)F)nc1-2)C(N)=O next
[out] 67.2

[in] Then what about the compound CC(Cn1ccc(-c2ccc(C#N)c(Cl)c2)n1)NC(=O)c1cc(C(C)O)[nH]n1 (stereo unspecified) + Cc1nc(NC(=O)N2CCCC2C(N)=O)sc1-c1ccnc(C(C)(C)C(F)(F)F)c1 ?
[out] 64.6

[in] And CC(C)NCC(C(=O)N1CCN(c2ncnc3c2C(C)CC3O)CC1)c1ccc(Cl)cc1 (stereo unspecified) + COc1c(OCCCN2CCOCC2)ccc2c3n(c(=NC(=O)c4cnc(N)nc4)nc12)CCN3 ?
[out] 27.1

[in] Subsequent entry: CC(C)NCC(C(=O)N1CCN(c2ncnc3c2C(C)CC3O)CC1)c1ccc(Cl)cc1 (stereo unspecified) + Cc1nc(NC(=O)N2CCCC2C(N)=O)sc1-c1ccnc(C(C)(C)C(F)(F)F)c1
[out] 34.2

[in] Now give it for CC(Cn1ccc(-c2ccc(C#N)c(Cl)c2)n1)NC(=O)c1cc(C(C)O)[nH]n1 (stereo unspecified) + CC(Nc1ncnc2nc[nH]c12)c1cc2cccc(Cl)c2c(=O)n1-c1ccccc1 too.
[out] 89

[in] And what about the compound Cn1ncc(Cl)c1-c1cc(C(=O)NC(CN)Cc2cccc(F)c2)sc1Cl (stereo unspecified) + COc1c(OCCCN2CCOCC2)ccc2c3n(c(=NC(=O)c4cnc(N)nc4)nc12)CCN3 ?
[out] 17.5

[in] Thanks! And Cn1ncc(Cl)c1-c1cc(C(=O)NC(CN)Cc2cccc(F)c2)sc1Cl (stereo unspecified) + CC(Nc1ccc2c(c1)OCCn1cc(N3C(=O)OCC3C(F)F)nc1-2)C(N)=O ?
[out] 20.8

[in] One more compound: CC(C)NCC(C(=O)N1CCN(c2ncnc3c2C(C)CC3O)CC1)c1ccc(Cl)cc1 (stereo unspecified) + CC(Nc1ncnc2nc[nH]c12)c1cc2cccc(Cl)c2c(=O)n1-c1ccccc1
[out] 38.5
